# System: LOX IMVI melanoma
# protocol-text: NCI-60 one-dose screen, 48 h
# stated-conditions: 10 µM unless noted
Compounds without any hit were thinned out: in the full panel of roughly 83,000, 20% have a hit. Active and inactive are the calls of the source. The calls were made as follows: active = growth percent below 10; inactive = the rest.
Pick one and only one: t (active), f (inactive)

Example entries and their recorded answers appear below.
O=C1c2ccccc2C(=O)c2c1cccc2-n1nnc2ccccc21 : f
CCOC(=O)c1c(C)nc(C)c(C(=O)OCC)c1-c1cccnc1 : f
O=C1Nc2ccccc2C12Nc1cc(Cl)ccc1S2 (stereo unspecified) : f
c1ccc(-c2nn[nH]n2)c(-c2ccc(CN3CCN(c4nsc5ccccc45)CC3)cc2)c1 : f

Ask: What was the test verdict on `O=C(/C=C/c1cccnc1)/C=C/c1cccnc1` ?
Reply: t

Ask: Another compound: `CN(C)CCCN1c2nc3ccccc3cc2Sc2cc3ccccc3nc21`
Reply: t

----------
# Tested on: KM12 colon
# protocol-text: NCI-60 one-dose screen, 48 h
# stated-conditions: 10 µM unless noted
# Procedure: Growth inhibition of the KM12 human tumor cell line is measured as a screen for anti-cancer activity. Cells are grown in 96 well plates and exposed to the test compound for 48 hours. Compounds are tested at a single concentration, which is 10^-5 M for most compounds. The reported endpoint is percent growth (GI% or GIPRCNT), where numbers from 0 - 100% represent growth inhibition, and numbers from -100% - 0 represent cell death. For example, a value of 40 represents 60% growth inhibition. […]
About 83,000 compounds went through this panel and 20% of them were active in at least one assay; those are over-represented in the sample as a whole. Active and inactive are the calls of the source. The calls were made as follows: active = growth percent below 10; inactive = the rest.
Pick one and only one: True (active), False (inactive)

COc1cc2c(c(OC)c1OC)CCc1cnoc1-2 : False
Cc1ccccc1NC(=O)c1cc2ccccc2cc1O : False
Oc1[nH]c2ccccc2c1/C=c1/ccc2c(c1)N=C(c1cc(F)cc(F)c1)N=2 : False
O=C(N1CCC(CN=c2cc3n(-c4ccc(Cl)cc4)c4ccccc4nc-3cc2Nc2ccc(Cl)cc2)CC1)N1CC1 : True

Now for a further compound.
Ask: What was the test verdict on `Fc1ccc([C@@H]2CCNC[C@H]2COc2ccc3c(c2)OCO3)cc1` ?
Reply: False

----------
# Test system: M14 melanoma
# protocol-text: NCI-60 one-dose screen, 48 h
# stated-conditions: 10 µM unless noted
Compounds without any hit were thinned out: in the full panel of roughly 83,000, 20% have a hit. Calls of active or inactive are those of the source. How the source made its calls: active means growth percent below 10; inactive means the rest.
Pick one and only one: Yes (active), No (inactive)

C=C1c2c(C)nn(-c3ccc(C#CCOC4OC(CO)C(O)C(O)C4O)cc3)c2N(C)C23C[C@H]1C1(C)c4c(C)nn(-c5ccc(C#CCOC6OC(CO)C(O)C(O)C6O)cc5)c4N(C)C(C)(C[C@H]12)C3 (some centres not stated) : Yes
CCCCSc1cc(C)nc(N)n1 : No
S=C(c1ccccc1)N1CCN(c2cccc(Cl)c2)CC1 : No

Ask: What was the test verdict on `CCOC(=O)/C=C(/C)Sc1cc(O)c2ccccc2c1O` ?
Reply: Yes

Ask: Another molecule: `CN(C)c1ccc2[nH]c3c(C(N)=O)cc(=O)c(=O)c=3oc2c1`
Reply: No

Ask: Another molecule: O=C(NCCc1ccccc1)C1CCC(=O)N1Cc1ccc(Br)cc1 (configuration not stated)
Reply: No

Ask: Another molecule: `O=C(CCc1nnc2sc(Cc3ccccc3Cl)nn12)c1nc2ccccc2[nH]1`
Reply: No

Ask: Another molecule: CC12CCCCC1C(C(N)=O)C(=O)O2 (configuration not stated)
Reply: No

Ask: Another molecule: CCOC(=O)C(Cc1ccccc1)(C(=O)OCC)C(Br)C(=O)c1ccccc1 (configuration not stated)
Reply: No

Ask: Another molecule: `O=C(C=C=Nc1ccccc1)C(=O)N=C=Cc1ccccc1`
Reply: No

Ask: Another molecule: `CC[C@@H]1OC(=O)[C@H](C)[C@@H](O[C@H]2C[C@@](C)(OC)[C@@H](O)[C@H](C)O2)[C@H](C)[C@@H](O[C@@H]2O[C@H](C)C[C@H](N(C)C)[C@H]2O)[C@](C)(O)C[C@@H](C)[C@@H]2N[C@@H](COCCOC)O[C@H]([C@H]2C)[C@]1(C)O`
Reply: No

Ask: Another molecule: `Cn1cc(-c2csc(-c3c[nH]c4ncccc34)n2)c2cc(F)cnc21`
Reply: No

----------
Recorded growth, one value per entry.
# System: M14 melanoma
# protocol-text: NCI-60 one-dose screen, 48 h (100 = growth as untreated, 0 = no growth, -100 = all killed)
# stated-conditions: 10 µM unless noted
The panel holds about 83,000 compounds, 20% with a hit somewhere; the sample as a whole holds those more often.
Reply numerically in %, unit not repeated.

Solved cases below.
COc1cc2c(c(OC)c1OC)-c1ccc(NN(C(=O)c3ccccc3)C(=O)c3ccccc3)c(=O)cc1[C@@H](NC(C)=O)CC2 (tested in a mixture with another compound) : 4.01
C=C(C)[C@@H]1C[C@H](O)Cc2cc(Cl)cc(Cl)c2N1 : 110
CCCCCCCCCCC[C@@H](C[C@H]1OC(=O)[C@H]1CCCCCC)OC(=O)[C@@H](CC(C)C)NC=O : 62.6

We next turn to a different molecule, shown below.
Ask: Give the reported growth for CCOC(=O)C(C(C)=O)c1nc2sc3cc(Cl)ccc3n2c(=N)c1C#N (centres undefined) (system: M14 melanoma).
Reply: 77.8

----------
# Test system: HCT-116 colon
# protocol-text: NCI-60 one-dose screen, 48 h (100 = growth as untreated, 0 = no growth, -100 = all killed)
# stated-conditions: 10 µM unless noted
About 83,000 compounds went through this panel and 20% of them were active in at least one assay; those are over-represented in the sample as a whole.
Recorded growth, one value per entry.
Reply numerically in %, unit not repeated.

Solved cases below.
O=[N+]([O-])c1ccc(N/N=C\c2ccccc2[N+](=O)[O-])nc1 : 102
Clc1cccc(Cc2cn3cc(-c4ccccc4)nc3s2)c1 : 42.6
C[C@]12C[C@H](O)[C@H]3[C@@H](CCC4=CC(=O)CC[C@@]43C)[C@@H]1CC[C@@H]2C(=O)CO : 106

Ask: Please report the recorded growth for `C[C@]12CC[C@@H]3c4ccc(O)c([N+](=O)[O-])c4CC[C@H]3[C@@H]1CC[C@@H]2NS(=O)(=O)c1ccc(C(F)(F)F)cc1` .
Reply: 15.5

----------
# Test system: NCI-H226 lung
# protocol-text: NCI-60 one-dose screen, 48 h (100 = growth as untreated, 0 = no growth, -100 = all killed)
# stated-conditions: 10 µM unless noted
This is part of a sample that, as a whole, favours compounds with a hit. Of some 83,000 tested, about 20% had one in any assay.
Recorded growth, one value per entry.
Reply numerically in %, unit not repeated.

O=C(Nc1ccc(Cl)cc1)Nc1ccc(Oc2nncc3ccccc23)cc1 : -54.5

Ask: Please report the recorded growth for `Oc1ccc(-c2nn(-c3ccccc3)cc2-c2nc3ccccc3s2)cc1` .
Reply: 85.9

Ask: Another molecule: `CN(C)c1nc(N)nc(Cn2c(-c3nonc3N)nc3ccccc32)n1`
Reply: 91.3

----------
# System: 786-0 renal
# protocol-text: NCI-60 one-dose screen, 48 h
# stated-conditions: 10 µM unless noted
The panel holds about 83,000 compounds, 20% with a hit somewhere; the sample as a whole holds those more often. Activity calls are given as the source filed them. Rule for the calls: active = growth percent below 10; inactive = the rest.
Pick one and only one: YES = active, NO = inactive

Example entries and their recorded answers appear below.
COc1ccc(OC)c2c1[nH]c(=O)c1c3ccccc3cn21 : YES
Cc1cccc(Cl)c1NC(=O)c1ccc2nc(NC(=O)NC3CC(C)(C)NC(C)(C)C3)sc2c1 : NO
CC(=O)c1cc(C(=O)c2ccc3c(c2)Sc2ccccc2N3)c2c(C)cc(C)cn12 : YES
Cn1c(=O)c2c(nc(Br)n2CCC(=O)Nc2ccc(F)cc2)n(C)c1=O : NO

Now for a further compound.
Ask: What was the test verdict on `O=C(/C(=C/c1ccc([N+](=O)[O-])cc1)c1ccccc1)c1ccccc1` ?
Reply: NO

----------
# Tested on: PC-3 prostate
# protocol-text: NCI-60 one-dose screen, 48 h (100 = growth as untreated, 0 = no growth, -100 = all killed)
# stated-conditions: 10 µM unless noted
The panel holds about 83,000 compounds, 20% with a hit somewhere; the sample as a whole holds those more often.
Label 1 when growth >= 80%; otherwise 0.

O=c1[nH]c(=O)n(C2CC(O)C(CO)O2)cc1C(F)(F)F (stereo unspecified) : 0
CC/C(=C\c1ccc(N(C)C)cc1)c1nc2ccccc2c(=O)[nH]1 : 1
COc1cc(Oc2cc(-c3cccnc3)ccc2NC(=O)Nc2ccc(F)cc2F)cc(OC)c1OC : 1
N#CCCN(CCO)c1ccccc1 : 1
O=C1Cc2cc(CCN3CCN(CCOCCO)CC3)c(Cl)cc2N1Cc1ccc(-c2ccccc2-c2nn[nH]n2)cc1 : 0

Ask: Could you please find out whether CCOC(=O)C1C(=O)OC2CCCCC21 (stereo unspecified) has growth that meets 80% or exceeds it?
Reply: 1

Ask: Another compound: `COc1ccc2nc(-c3ccc(-n4cncc4-c4ccc(OC)c(N)c4)cc3)sc2c1`
Reply: 1

Ask: Another compound: `c1ccc(-c2nn[nH]n2)c(-c2ccc(CN3CCN(c4nsc5ccccc45)CC3)cc2)c1`
Reply: 1

Ask: Another compound: `Cn1[nH]cc(/C=N/C(N)=O)c1=O`
Reply: 1

Ask: Another compound: `O=C(NCCCO)c1cc(Cl)ccc1O`
Reply: 0

Ask: Another compound: `NC(=O)NN=C(C1CC1)C1CC1`
Reply: 1
